Molecular target: EBOV GP ectodomain residues 1-636 (GPec) (Zaire ebolavirus, strain  …, UniProt Q05320)

BINDER: 5.6.c3225 (antibody, V domains shown) VH: EVQLVESGGGLVKPGGSLRLSCAASGFTFSSYTMNWVRQAPGKGLEWVSFISSTSRYIHYADSVKGRFTISRDNAKNSLFLQINSLRDEDTAVYFCARESVDDTSMLYYGLDVWGQGTTVTVSS VL: DIQMTQSPSSLSASVGGRVTITCRASQSISSSLSWYQQKPGKAPKFLIYGASTLESGVPSRFSGSGSGTDFTLTISSLQPEDFATYFCQQSHSLPWTFGQGTKVEIK
binding result: binds
//
BINDER: 5.6.c2517 (antibody, V domains shown) VH: QVQLQQWGAGLLKPSETLSLSCSVYPGSFSGYYWAWIRQPPGKGLEWIGEINHSGSTKYNPSLKSRVTISIDTSKNQLSLKMSSVTAADSAVYYCASLTRSSWFRAFDYWGQGTLVTVSS VL: QSALTQPASVSGSPGQSITISCTGSSSDIGGYDYVSWYQQHPGKAPKLMIFDVSDRPSGVSNRFSGSKSGNTASLTISGLQPEDEADYYCSSYTSISSSYVFGTGTKVTVL
binding result: binds
